Tested on: RARb homodimer (NR concentration 270 nM)
Assay: PBM binding z-score (relative to random genomic background probes); higher = stronger binding; sequences stand for … in GC…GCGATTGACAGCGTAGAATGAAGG
Binning of PBM binding z-score into classes: LOW: < 2; MID: ≥ 2 and < 4; HIGH: ≥ 4

| RESIDUES | QUALITATIVE LABEL |
| --- | --- |
| GCAACGAGGGCAAGTTGATAGCAGAGTTTGATGG | LOW |

Now look at this entry.
Ask: Categorize the following entry: "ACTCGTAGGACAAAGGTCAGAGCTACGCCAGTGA"
Result: HIGH

----------
Test system: RARb homodimer (NR concentration 270 nM)
Assay: PBM binding z-score (relative to random genomic background probes); higher = stronger binding; sequences stand for … in GC…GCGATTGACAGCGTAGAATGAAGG
// reported PBM binding z-score for each item listed
I'd appreciate a reply containing only the number, no unit.

Past entries and their recorded results:
| RESIDUES | VALUE TYPE | READOUT VALUE |
| --- | --- | --- |
| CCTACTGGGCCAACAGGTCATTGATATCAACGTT | PBM binding z-score | 2.5 |
| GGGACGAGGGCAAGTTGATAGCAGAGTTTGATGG | PBM binding z-score | 1.99 |
| TCGTGTAGATCAACAGGAGGTTAAGAAAGATCGA | PBM binding z-score | 0.472 |
| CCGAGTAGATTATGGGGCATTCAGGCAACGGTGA | PBM binding z-score | 0.0129 |
| GCGACTGGGGCAAAGCAGGTTACCACAAGGTTGG | PBM binding z-score | 1.08 |

Ask: So what's the measured PBM binding z-score for this one? "CCCGAAAGGTCGGTTGAGGTGAGTATACGGATAA"
Result: 2.61

Ask: Item under review: "TCATATAGGTAAACGGTGAAAGTCGGTGTGGTAA" . Reported PBM binding z-score?
Result: 0.301

Ask: Given the sequence "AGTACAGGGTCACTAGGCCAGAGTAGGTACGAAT" , what is its reported PBM binding z-score?
Result: 3.49

Ask: # input sequence: "CAAACTAGGTCACAGAGGTCAAATTCCGTGCGTA" ; wanted: its PBM binding z-score
Result: 5.28

----------
Test system: THRa:RXRa (NR concentration 90 nM, RXRa partner concentration 90 nM)
Assay: PBM binding z-score (relative to random genomic background probes); higher = stronger binding; sequences stand for … in GC…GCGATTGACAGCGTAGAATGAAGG
PBM binding z-score for assorted sequences

Some entries whose results are on file:
| RESIDUES | TARGET | PBM binding z-score |
| --- | --- | --- |
| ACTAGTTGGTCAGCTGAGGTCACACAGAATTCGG | THRa:RXRa (NR concentration 90 nM, RXRa partner concentration 90 nM) | 5.12 |
| TAGCCTAGGTCATGCGGGCCAGTATCGTGTCGGC | THRa:RXRa (NR concentration 90 nM, RXRa partner concentration 90 nM) | 2.88 |

Ask: Give recorded PBM binding z-score with THRa:RXRa (NR concentration 90 nM, RXRa partner concentration 90 nM) for the following sequence: "AGAACGAGGGCAAGCTGAGTTGATAGCAGAGTAG"
Result: 1.35
